# Test system: myocardiale Radiocalciumaufnahme
# assay-notes: Inhibition of isoprenaline-induced myocardial radiocalcium uptake in conscious rats after oral dosing (method of Arndts)
# Format: in vivo, Ratten
# experimental-parameters: Rattus norvegicus, oral dose that inhibits by 50 % the myocardial radiocalcium uptake caused by 30 mg/kg s.c. Isoprenalin, read-out: H50
experimental-endpoint: ED50 (mg/kg)

1. C[C@H](N[C@@H](CCc1ccccc1)C(=O)O)C(=O)N1Cc2ccsc2C[C@H]1C(=O)O [E]	1.1
2. CC(CS)C(=O)N1CCC[C@@H]1C(=O)O (stereo partly drawn) [Captopril, D-2-Methyl-3-mercaptopropanoyl-L-prolin]	1.52
3. CCOC(=O)[C@H](CCc1ccccc1)N[C@@H](C)C(=O)N1CCc2ccsc2[C@H]1C(=O)O [A]	0.63
4. C[C@H](N[C@@H](CCc1ccccc1)C(=O)O)C(=O)N1Cc2nc[nH]c2C[C@H]1C(=O)O [D]	1.32
5. CCOC(=O)[C@H](CCc1ccccc1)N[C@@H](C)C(=O)N1CCC[C@H]1C(=O)O [Enalapril]	1.59
